# assay_system: T1, recombinant BACE1 (BACE1 extracellular domain, R&D Systems Cat#931-AS) (UniProt P56817 22-457)
# T1 construct: extracellular domain; also called BACE1 extracellular domain protein
# T1 sequence (P56817 22-457): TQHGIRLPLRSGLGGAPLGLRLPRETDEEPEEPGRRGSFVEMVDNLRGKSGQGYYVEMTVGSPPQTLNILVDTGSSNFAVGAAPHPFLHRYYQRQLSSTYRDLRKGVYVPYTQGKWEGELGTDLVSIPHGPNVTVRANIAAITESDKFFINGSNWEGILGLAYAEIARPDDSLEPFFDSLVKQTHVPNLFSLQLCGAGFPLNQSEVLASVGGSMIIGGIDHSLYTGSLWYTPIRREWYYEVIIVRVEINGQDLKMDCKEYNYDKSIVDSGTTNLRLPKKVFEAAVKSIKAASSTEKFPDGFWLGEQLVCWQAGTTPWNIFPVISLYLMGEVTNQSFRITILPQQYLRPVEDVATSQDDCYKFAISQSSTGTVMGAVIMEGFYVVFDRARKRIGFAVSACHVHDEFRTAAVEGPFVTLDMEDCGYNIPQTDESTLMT
# experiment_notes: SPR Biacore
observed_property: pKd
By convention, pKd is the negative base-10 log of a molar concentration.

# query: pKd of entry 2H8.09 (antibody, human IgG1, V domains shown, human IgG1/kappa; also called 2H8_HCvar3 + 2H8_LCvar2) VH: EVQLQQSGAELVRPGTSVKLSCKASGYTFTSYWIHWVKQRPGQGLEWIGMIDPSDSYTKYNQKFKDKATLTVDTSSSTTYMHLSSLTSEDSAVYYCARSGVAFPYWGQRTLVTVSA VL: DIVMTQSQKFMSTSVGDRVSVTCKASQNVGTNVAWYQQKPGQSPKALIYSASHRYSGVPDRFTGSGSGTDFTLTISNVQSEDLAEYFCQQYNSYMYTFGGGTKLEIK 7.74

Every entry's value here was drawn from patent US20210070881A1.
